Please go through the items and note down their proliferation hit score, Low sera.
- System: HCT116 cells
- Assay Protocol: WST-1 proliferation assay on HCT116 cells treated with peptide
- Type: cell-based
- Applied Conditions: Low sera, 5 uM, head 2 SD
One number for each entry, in SD.

Solved cases (3 shown):
Substance	proliferation hit score, Low sera / SD
SEQ ID NO: 38017: peptide hit of Table E; sequence only in Sequence Listing (GVFVVARDRRRRELRTGAFSLLLGVVALLPLCGKRIQALPRACGCGGPEVLVVPR; listed as Homo sapiens)	−1.525
SEQ ID NO: 38073: peptide hit of Table E; sequence only in Sequence Listing (MTVSLFLLLATSQSQDGCCDSGSCPNSRQQEGHGAAPASSCLPIP; listed as Homo sapiens)	0.1141
SEQ ID NO: 38076: ORF peptide; sequence only in Sequence Listing (MHLLLLPVIFLPWVLPQHKHTSATPGFSSEKQFMSETENQTANVKFY; listed as Homo sapiens)	−0.293

Hi! Can you tell me proliferation hit score, Low sera for each of these substances?
1. SEQ ID NO: 34047: peptide hit of Table E; sequence only in Sequence Listing (MHINYFFFLKLFLSLQNLILALDLRRESLTRDETQ; listed as Homo sapiens)
2. SEQ ID NO: 28759: peptide hit of Table E; sequence only in Sequence Listing (MKKSCRWVFFLITKSLFKETVA; listed as Homo sapiens)
3. SEQ ID NO: 27193: ORF peptide; sequence only in Sequence Listing (LRFKVLLRVLFFMAPVPPQVFGQ; listed as Homo sapiens)

1. 0.3241
2. −3.329
3. 0.6897

###

- Tested on: HCT116 cells
- Assay Protocol: WST-1 proliferation assay on HCT116 cells treated with peptide
- Format: cell-based
- Applied Conditions: High sera, 1 uM, head 2 SD
Please provide measured proliferation hit score, High sera for the entries that follow.

Substance	Assay Value
SEQ ID NO: 33681: peptide hit of Table E; sequence only in Sequence Listing (IMAIFFFFCIIVSSLPTAELGTENACSTCLLNE; listed as Homo sapiens)	−3.672 SD

Would you be so kind as to report proliferation hit score, High sera for each listed record?
1. SEQ ID NO: 38081: peptide hit of Table E; sequence only in Sequence Listing (MRRAWRPRLLGAALVAH; listed as Homo sapiens)
2. SEQ ID NO: 33599: ORF peptide; sequence only in Sequence Listing (MCLGLLFCFMPLSLVVSSEEARFKVAADLCGFATGNSW; listed as Homo sapiens)
3. SEQ ID NO: 37997: synthetically produced target protein, secreted tumor suppressor; sequence only in Sequence Listing (MSRLSLSWESLTNAIWPLDLQDIKGYLPNPLPQRVNLRKQILSISKEPN; listed as Homo sapiens)
4. SEQ ID NO: 29230: peptide hit of Table E; sequence only in Sequence Listing (REQVPGMGGKSWLFFYSLVFCALLPLPRREDPFKLF; listed as Homo sapiens)

−0.4884 SD
−0.6105 SD
−5.8 SD
−0.4364 SD

###

- Test system: U2OS cells
- Assay Protocol: WST-1 proliferation assay on U2OS cells treated with peptide
- Format: cell-based
- Applied Conditions: Low sera, 5 uM, head 2 SD
Doc: threshold -5 SD (exclusive). Items with proliferation hit score, Low sera beneath it return yes (1); others return no (0).

As a guide, the following entries are already answered.
Substance	Assigned Category
SEQ ID NO: 38073: peptide hit of Table E; sequence only in Sequence Listing (MTVSLFLLLATSQSQDGCCDSGSCPNSRQQEGHGAAPASSCLPIP; listed as Homo sapiens)	no (0)
SEQ ID NO: 38017: peptide hit of Table E; sequence only in Sequence Listing (GVFVVARDRRRRELRTGAFSLLLGVVALLPLCGKRIQALPRACGCGGPEVLVVPR; listed as Homo sapiens)	no (0)

Here's an entry: SEQ ID NO: 27193: ORF peptide; sequence only in Sequence Listing (LRFKVLLRVLFFMAPVPPQVFGQ; listed as Homo sapiens) . Is its proliferation hit score, Low sera below -5 SD?
no (0)

Entry to check: SEQ ID NO: 34047: peptide hit of Table E; sequence only in Sequence Listing (MHINYFFFLKLFLSLQNLILALDLRRESLTRDETQ; listed as Homo sapiens)
yes (1)

Same thing, different substance: SEQ ID NO: 38076: ORF peptide; sequence only in Sequence Listing (MHLLLLPVIFLPWVLPQHKHTSATPGFSSEKQFMSETENQTANVKFY; listed as Homo sapiens)
no (0)
